- Tested on: MDA-N
- measurement_description: NCI tumour cell line growth inhibition, 48 h
Active and inactive are the calls of the source. Cut-off read from the data, not from the text of the source: active = GI50 up to about 1.1 µM and inactive = higher.
measured_quantity: GI50

As a guide, the following entries are already answered.
CC(C)(C)OC(=O)/C=C/[C@@H](CCC(=O)/C=C/[C@H](/C=C\CCCC(=O)O)NC1(c2ccccc2)c2ccccc2-c2ccccc21)O[Si](C)(C)C(C)(C)C    17.1 µM (inactive)
CCOC(=O)[C@@H]1C[C@@H]1c1ccc(O)c(O)c1    17.1 µM (inactive)
CCCCCCCCCCCCCCCC(=O)OCC(COP(=O)(O)OCCNC(=O)CCSSc1ccccn1)OC(=O)CCCCCCCCCCCCCCC (stereo unspecified)    > 100 µM (inactive)
c1cncc(CNCc2cccnc2)c1    > 100 µM (inactive)
CC(C)(C)c1ccc(-c2nc3ccc(Cl)cc3c(=O)o2)cc1    25.2 µM (inactive)

Return reported GI50; argument: CCOC(=O)c1csc(NC(=O)CCCC#N)n1 > 100 µM (inactive)

And the next one, COc1cc(CNc2nc3ccccc3n2Cc2ccccc2)cc(CN2CCOCC2)c1O ? 27.4 µM (inactive)

Another compound to check: CNC(=S)NN=C1NCCCN1 > 100 µM (inactive)

Thanks! And NC(CCC(=O)c1ccccn1)C(=O)O (stereo unspecified) ? > 100 µM (inactive)

Next compound: CCOC(=O)c1c(NC(=O)c2ccccc2)sc2c1CCCC2 > 100 µM (inactive)

Moving on to the next compound: O=C(Nc1ccc(Cl)cc1)NS(=O)(=O)c1c(-c2ccccc2)oc2ccccc2c1=O 44.7 µM (inactive)

Param item: COc1ccccc1NC(=O)C1=C(C)NC(C)=C(C(=O)Nc2ccccc2OC)C1c1ccco1 2.74 µM (inactive)

Please do the same for CN(C)/C=C/c1ccncc1 as well. > 100 µM (inactive)

Would you kindly repeat that for O=C(CC(C(=O)c1ccsc1)c1cccs1)c1ccsc1 (stereo unspecified) ? 30.1 µM (inactive)

// query: CCCCCCCC(=O)OC[n+]1ccc(-c2c(COC(=O)NC(C)C)c(COC(=O)NC(C)C)c3n2CCC3)cc1 > 94.8 µM (inactive)

====

- Test system: CCRF-CEM
- measurement_description: NCI tumour cell line growth inhibition, 48 h
Calls of active or inactive are those of the source. Cut-off read from the data, not from the text of the source: active = GI50 up to about 1.1 µM and inactive = higher.
Collected GI50 values appear next to each entry.

Examples with their reported GI50 follow.
O=[As]O    15.6 µM (inactive)
CCOC1=C2C(C)(CCC3[C@@]4(C)C=CC(=O)C(C)(C)C4CC(O)[C@@]23C)C(c2ccoc2)C1=O (some centres not stated)    7.93 µM (inactive)
O=C(Cc1ccccc1)NN1C(=O)C(Cl)C1c1cc(Br)ccc1O (configuration not stated)    0.755 µM (active)
Cc1cc(C)c(C(=O)/C(=C/c2ccccc2)c2ccccc2)c(C)c1    35.1 µM (inactive)
Cc1nc2cccc([N+](=O)[O-])c2c(NCCCN(C)C)c1C    21.3 µM (inactive)

Form: Entry = Nc1cc2c3c(c1)Oc1cc(N)cc4c1C3c1c(cc(N)cc1O4)O2 | System = CCRF-CEM | GI50 = ____ 43.4 µM (inactive)

Would you kindly repeat that for COC(=O)c1cccc(C(=O)OC)c1 ? > 100 µM (inactive)

Query O=C(CC(C(=O)c1ccsc1)c1cccs1)c1ccsc1 (configuration not stated) next 15.2 µM (inactive)

====

- Test system: NCI-H23
- measurement_description: NCI tumour cell line growth inhibition, 48 h
Calls of active or inactive are those of the source. Rule as the data show it: active = GI50 up to about 1.1 µM and inactive = higher.
The following molecules are shown together with reported GI50 values.

A selection of reference data follows.
Cc1ccnc(NC(=S)Nc2ccc([N+](=O)[O-])cc2)c1    > 100 µM (inactive)
C=CC(C)(O)CCC1C(=C)C(O)CC2C(C)(C)CCCC12C (stereo not drawn)    18.7 µM (inactive)
COc1ccc(NC(=O)C2=C(SC)C(C#N)C(=O)N=C2N)cc1 (stereo not drawn)    > 100 µM (inactive)
CC(C)S(=O)(=O)ON1C(=O)c2ccc([N+](=O)[O-])cc2C1=O    > 100 µM (inactive)
CC(=O)OCC1OC(n2cc(I)c(=O)[nH]c2=O)C(OC(C)=O)C(OC(C)=O)C1OC(C)=O (stereo not drawn)    > 100 µM (inactive)
CNC(=S)NNc1ncnc2c1c(-c1ccc(Cl)cc1)cn2-c1ccc(C)cc1    13.2 µM (inactive)

So what does the record say about GI50 for O=C(/C=C\c1ccsc1)c1ccccc1 ? 5.7 µM (inactive)

Same question, O=C1CC2CCCC23CC2(CCN13)OCCO2 (stereo not drawn) this time > 100 µM (inactive)

// query: C/C(=N/NC(=O)C(N)=O)C(CC(C(=O)Nc1ccccc1C)/C(C)=N\NC(=O)C(N)=O)C(=O)Nc1ccccc1C (stereo not drawn) > 100 µM (inactive)

Note, next up: c1cncc(CNCc2cccnc2)c1 > 100 µM (inactive)

What do you have for O=[As]O ? > 48.3 µM (inactive)

Same lookup for O=C(/C=C/c1ccccc1O)c1ccccc1O , please. 76.2 µM (inactive)

Cool, now NC1(C(=O)O)CCc2ccc(N(CCCl)CCCl)cc2C1 (stereo not drawn) > 100 µM (inactive)

====

- Tested on: SR
- measurement_description: NCI tumour cell line growth inhibition, 48 h
Calls of active or inactive are those of the source. Cut-off read from the data, not from the text of the source: active = GI50 up to about 1.1 µM and inactive = higher.
Answer with one of the outcomes true for active, false for inactive

Please review the entries below; each comes with its answer.
COc1ccc(OC)c(CC(=O)c2ccc(O)c(C(=O)NCCc3ccc(F)cc3)c2)c1    true
Cc1ccc(NC(c2ccccc2)P(=O)(c2ccccc2)c2ccccc2)cc1 (configuration not stated)    false
N#CC(=N)c1ncn(-c2ccc(N)cc2)c1N    false
c1n[nH]cc1C12C3C4C5C3C1C5C42 (configuration not stated)    false
CC[C@@]1(O)C(=O)OCc2c1cc1n(c2=O)Cc2cc3c(OC)cccc3nc2-1    true

Now let's try a different one.
For O=C(c1ccc([N+](=O)[O-])cc1)C(Br)C(Br)c1ccnc2ccccc12 (configuration not stated) , what call appears in the results of this test? false

====

- Test system: OVCAR-3
- measurement_description: NCI tumour cell line growth inhibition, 48 h
The source made the active and inactive calls. Cut-off read from the data, not from the text of the source: active = GI50 up to about 1.1 µM and inactive = higher.
measured_quantity: GI50

The cases that follow already have their GI50 on record.
Cc1cc(C)c2[s+]snc2c1    97.9 µM (inactive)
Clc1ccc(-c2cc(-c3cc(-c4ccc(Cl)cc4)[nH]n3)[nH]n2)cc1    > 100 µM (inactive)
CC1=NC(C(=O)O)Cc2c1[nH]c1ccccc21 (stereo not drawn)    > 100 µM (inactive)
Cc1ccc(-c2nc(-c3nccc4ccccc34)oc2-c2ccccc2)cc1    56.1 µM (inactive)
O=C1CC2CCCC23CC2(CCN13)OCCO2 (stereo not drawn)    > 100 µM (inactive)

What value of measured GI50 is listed for COc1ccc(N2C(=O)C3C=CC(n4[nH]c(=O)n(Cc5ccccc5)c4=O)CC3C2=O)cc1 (stereo not drawn) ? > 100 µM (inactive)

Please do the same for CC(C)S(=O)(=O)ON1C(=O)c2ccc([N+](=O)[O-])cc2C1=O as well. > 100 µM (inactive)

Also check O=C(Nc1ccc(Br)c2ccccc12)c1ccc2ccccc2c1O 3.37 µM (inactive)

Also, O=c1c2c(-c3ccccc3)onc2n(-c2ccccc2)c(=O)n1-c1ccccc1 please. 15.1 µM (inactive)

Query N#CC(=N)c1ncn(-c2ccc(N)cc2)c1N next > 100 µM (inactive)

Then Cc1cc(=O)oc2c(CNC(Cc3ccccc3)C(=O)O)c(O)ccc12 (stereo not drawn) ? > 100 µM (inactive)

Now the same for COc1cc2c(cc1OC)C(OC)N(C)c1c-2ccc2cc3c(cc12)OCO3 (stereo not drawn) 1.5 µM (inactive)

Could you do the same for N#CCC(=O)Nc1ccccc1O , please? > 100 µM (inactive)

====

- Test system: NCI-H460
- measurement_description: NCI tumour cell line growth inhibition, 48 h
Active and inactive are the calls of the source. No stated cut-off is given here; in the data, active = GI50 up to about 1.1 µM and inactive = higher.
Field 'call' accepts active, inactive

Assay result, entry CC(=O)c1sc(Nc2ccc(Cl)c(Cl)c2)nc1C — outcome? inactive

Query O=C(Nc1c(O)[nH]c(=S)[nH]c1=O)c1ccccc1F next inactive

Next up: CCOC(=O)/C(C#N)=C/c1ccnc2ccccc12 inactive

Now give it for Clc1ccc2c(c1)CC1C[N+]3=C(CCCCC3)C1=C2 (centres undefined) too. inactive

What about O=C1CC2CCCC23CC2(CCN13)OCCO2 (centres undefined) ? inactive

Again, but for Cc1ccnc(NC(=S)Nc2ccc([N+](=O)[O-])cc2)c1 inactive

For O=C1CCC2(c3ccccc3)Nc3ccncc3N12 (centres undefined) then? inactive

# repeat for CC(C)(C)OC(=O)/C=C/[C@@H](CCC(=O)/C=C/[C@H](/C=C\CCCC(=O)O)NC1(c2ccccc2)c2ccccc2-c2ccccc21)O[Si](C)(C)C(C)(C)C inactive

Thanks! And O=C(/C=C/c1ccccc1O)c1ccccc1O ? inactive

These measurements were taken from ChEMBL document CHEMBL1201862.
